B1: glmS ribozyme (parent)
chain: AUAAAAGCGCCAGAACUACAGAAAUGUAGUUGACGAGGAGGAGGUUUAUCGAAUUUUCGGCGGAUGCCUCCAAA

variants of: B1; test: self-cleavage kobs at 640 uM GlcN6P; higher = faster cleavage; RNA array; details: with glucosamine-6-phosphate
Variants at the floor of the assay were thinned out.
For each of the variants below, state its self-cleavage kobs at 640 uM GlcN6P.

Each variant below has a reported value. Please supply its self-cleavage kobs at 640 uM GlcN6P.
1. AUAAAAGCGCCAGAACUACAGAAAUGUAGUUGACCAGGAGGAGGUUUAUCGAAUUUUCGACGGAUGCAUCCAAA
2. AUAAAAGCGCCAGAACUACAGAAAUGUAGUUGACGAGGAGGAAGUUUAUCGAGUUUUCGUCGGAUGCCUCCAAA

< 1e-05 s⁻¹
< 1e-05 s⁻¹

I would be grateful if you could provide self-cleavage kobs at 640 uM GlcN6P for each of the following entries.
1. AUAAAAGUGCCAGAGCUACAGAAAUGUAAUUGACGAGGAGGAGGUUUAUCGAAUUUUCGGCGGAUGCCUCCAAA
2. AUAAAAGCGCCAGAACGACAGAAAUGUAGUUGACGAGGAGGAGGUUUAUCGAAUUUUCGGCUGAUGCCUCCAAA
3. AUAAACGCGCCAGUACUACAGAAAUGUAGUUGACGAGGAGGAGGUUUAUCGAAUGUUCGGCGGAUGCCUCCAAA
4. AUAAAAACGCCAGAACUACAGAAAUGUAGUUGACGAGGAGGAGGUUUUUCGAUUUUUCGGCGGAAGCCUCCAAA
5. AUAAAUGCGCCAGAACUACAGAAAUGUAGUUGGCGAGGAGGAGGUUUAUCGAAUUUUCGGCGGAUGCCUCCAAA

1. < 1e-05 s⁻¹
2. < 1e-05 s⁻¹
3. < 1e-05 s⁻¹
4. < 1e-05 s⁻¹
5. < 1e-05 s⁻¹
